assayMethodText: Cytotoxicity against mouse peritoneal macrophages assessed as reduction in cell viability incubated for 72 hrs by MTT assay
Format: cell-based, Peritoneal macrophage cell
reportedMetric: CC50 at 72 h (µM)
Output spec: scalar in µM, unitless text.

Solved entries:
{"smilesStr": "OCCCc1cn(CCCCCCCCCCCCI)nn1", "CC50 at 72 h [µM]": 66.2}
{"smilesStr": "CCOC(=O)c1cn(CCCCCCCCCOS(C)(=O)=O)nn1", "CC50 at 72 h [µM]": 983}
{"smilesStr": "C[N+](C)(C)CCOP(=O)([O-])OCCCCCCCCCCCCN=[N+]=[N-]", "CC50 at 72 h [µM]": 129}
{"smilesStr": "CS(=O)(=O)OCCCCCCCCCCCCn1cc(CCCO)nn1", "CC50 at 72 h [µM]": 163}
{"smilesStr": "OCCCc1cn(CCCCCCCCCCCCF)nn1", "CC50 at 72 h [µM]": 163}
{"smilesStr": "CS(=O)(=O)OCCCCCCCCCCCCn1cc(CCCOS(C)(=O)=O)nn1", "CC50 at 72 h [µM]": 156}
{"smilesStr": "CC(=O)OCCCc1cn(CCCCCCCCCCCCOS(C)(=O)=O)nn1", "CC50 at 72 h [µM]": 26.6}

Now consider the entry below.
CC50 at 72 h reported for this compound CCOC(=O)c1cn(CCCCCCCCCCCCI)nn1 : 93.4

* * *

assayMethodText: Selectivity index, ratio of CC50 for mouse peritoneal macrophages to IC50 for Leishmania amazonensis MHOM/BR/71973/M2269 amastigotes infected in mouse peritoneal macrophages
Format: functional
reportedMetric: Ratio CC50/IC50
Field format: numeric only.

{"compound": "CCOC(=O)c1cn(CCCCCCCCCOS(C)(=O)=O)nn1", "reportedMetric": "Ratio CC50/IC50", "measuredValue": 12.82}
{"compound": "CS(=O)(=O)OCCCCCCCCCCCCn1cc(CCCO)nn1", "reportedMetric": "Ratio CC50/IC50", "measuredValue": 11.47}
{"compound": "OCCCc1cn(CCCCCCCCCCCCI)nn1", "reportedMetric": "Ratio CC50/IC50", "measuredValue": 2.79}

Moving on to another compound below.
Form: compound = C[C@@H]1[C@H](O)[C@@H](C)/C=C/C=C/C=C/C=C/C=C/C=C/C=C/[C@H](O[C@@H]2O[C@H](C)[C@@H](O)[C@H](N)[C@@H]2O)C[C@@H]2O[C@](O)(C[C@@H](O)C[C@@H](O)[C@H](O)CC[C@@H](O)C[C@@H](O)CC(=O)O[C@H]1C)C[C@H](O)[C@H]2C(=O)O [AMPHOTERICIN B] ; Ratio CC50/IC50 = 4.44

* * *

// values below are reported log10 of IC50
Tested on: Leishmania amazonensis
assayMethodText: Leishmanicidal activity against Leishmania amazonensis MHOM/BR/71973/M2269 amastigotes infected in mouse peritoneal macrophages assessed as reduction in surviving parasites incubated for 72 hrs by Giemsa staining based optical light microscopy
Type: functional, organism-based
testContext: MHOM/BR/71973/M2269, 72 h
In plain terms, each number is the log10 of measured IC50 in µM.

{"smilesStr": "CS(=O)(=O)OCCCCCCCCCCCCn1cc(CCCOS(C)(=O)=O)nn1", "log10 of IC50": 1.85}
{"smilesStr": "CC(=O)OCCCc1cn(CCCCCCCCCCCCOS(C)(=O)=O)nn1", "log10 of IC50": 1.75}
{"smilesStr": "C[N+](C)(C)CCOP(=O)([O-])OCCCCCCCCCCCCN=[N+]=[N-]", "log10 of IC50": 0.58}
{"smilesStr": "CCOC(=O)c1cn(CCCCCCCCCOS(C)(=O)=O)nn1", "log10 of IC50": 1.88}
{"smilesStr": "CCOC(=O)c1cn(CCCCCCCCCCCCI)nn1", "log10 of IC50": 1.25}

log10 of IC50 measured on OCCCc1cn(CCCCCCCCCCCCI)nn1 = 1.37
